target: E. huxleyi dihydroorotate dehydrogenase (EhDHODH)
pIC50: −log10 of the molar value.

{"columns": ["COMPOUND", "pIC50"],
 "data": [
  ["Cc1c(-c2ccc(-c3ccccc3F)cc2)nc2ccc(F)cc2c1C(=O)O [brequinar]", 4.37]
]}

* * *

molecular target: E. huxleyi dihydroorotate dehydrogenase (EhDHODH); construct: ΔN20EhDHODH (first 20 residues truncated, start at residue 21; N-terminal eight-residue histidine tag); test: DCIP colorimetric DHODH activity assay, Morrison tight-binding fit; IC50 […]
pKi: −log10 of the molar value.
METRIC_NAME: pKi

{"columns": ["SMILES_REPRESENTATION", "OBSERVED_RESULT"],
 "data": [
  ["CCCCCCCc1cc(=O)c2ccccc2[nH]1", 8.64]
]}
